Biological target: T1, human macrophage migration-inhibitory factor (MIF) (human, UniProt P14174 2-115, limits assumed, Alexa-Fluor 488 or Monolith NT-647 (MST-Red) label where so named)
T1 construct: Biologically active recombinant MIF prepared as reported previously; also called Alexa-MIF; Alexa-488-MIF
T1 sequence (P14174 2-115 limits assumed): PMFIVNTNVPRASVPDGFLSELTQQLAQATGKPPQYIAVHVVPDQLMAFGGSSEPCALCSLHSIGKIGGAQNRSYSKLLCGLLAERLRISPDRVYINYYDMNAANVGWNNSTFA
Experiment: fluorescence spectroscopic binding assay
Where no end group is shown, it is not given here.
property: pKd
The quantity pKd is defined as the negative base-10 logarithm of the molar concentration.

pKd for WYFGNFLCK-NH2 [ECL1(102-110)] ?
7.10

pKd for ICDRFYPNDLW-NH2 [ECL2 fragment 185-195] ?
6.49

pKd for ANWYFGNFLCK-NH2 [ECL1 fragment 100-110] ?
6.67

pKd for DRFYPNDLW-NH2 [ECL2(187-195)] ?
6.54

pKd for NWYFGNFLCK-NH2 [ECL1 fragment 101-110] ?
7.29
